target: human CXCR4 (human, UniProt P61073 1-352); assay: cell-based or functional assay
Sequence (P61073 whole entry): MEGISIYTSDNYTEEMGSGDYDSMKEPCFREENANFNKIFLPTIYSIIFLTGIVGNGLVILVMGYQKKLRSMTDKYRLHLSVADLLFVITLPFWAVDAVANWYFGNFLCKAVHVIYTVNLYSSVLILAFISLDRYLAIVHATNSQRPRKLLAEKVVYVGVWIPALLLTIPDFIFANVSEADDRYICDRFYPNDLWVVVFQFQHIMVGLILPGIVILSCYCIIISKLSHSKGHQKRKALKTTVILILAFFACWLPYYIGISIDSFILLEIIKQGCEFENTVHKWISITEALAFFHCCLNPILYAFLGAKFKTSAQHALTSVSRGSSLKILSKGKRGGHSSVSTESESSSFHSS
Bridges are numbered along the chain shown (N, C = ends). [ ]: non-standard residue; d: D form. 2Nal = N[C@@H](Cc1ccc2ccccc2c1)C(=O)O; Cit = NC(=O)NCCC[C@H](N)C(=O)O; Dab = NCC[C@H](N)C(=O)O
# T = IC50 (nM) Ca2+ assay (method 2) below 4 nM (exclusive); F = IC50 (nM) Ca2+ assay (method 2) at/above 4 nM

- BINDER: "RRYCYQKGYXPYGYRTCRGP (D-Pro at P10; disulfide Cys P4-Cys P17; backbone-cyclic via template Gly-LPro) [Example 159]"
  CATEGORY_LABEL: "F"
- BINDER: "cyclo(YR[Cit]CRG[dP]RR[2Nal]CYTK[dP]P) (disulfide 4-11; SMILES C[C@@H](O)[C@@H]1NC(=O)[C@H](Cc2ccc(O)cc2)NC(=O)[C@@H]2CSSC[C@H](NC(=O)[C@H](CCCNC(N)=O)NC(=O)[C@H](CCCNC(=N)N)NC(=O)[C@H](Cc3ccc(O)cc3)NC(=O)[C@@H]3CCCN3C(=O)[C@H]3CCCN3C(=O)[C@H](CCCCN)NC1=O)C(=O)N[C@@H](CCCNC(=N)N)C(=O)NCC(=O)N1CCC[C@@H]1C(=O)N[C@@H](CCCNC(=N)N)C(=O)N[C@@H](CCCNC(=N)N)C(=O)N[C@@H](Cc1ccc3ccccc3c1)C(=O)N2) [Example 133]"
  CATEGORY_LABEL: "F"
- BINDER: "RRWCYQKGYKGYGYRXCRGX (Cit at P16; disulfide Cys P4-Cys P17; backbone-cyclic via template Gly-DPro) [Example 156]"
  CATEGORY_LABEL: "F"
- BINDER: "cyclo(YR[Cit][Dab]RG[dP]RRWEY[Cit]K[dP]P) (lactam 4-11; SMILES N=C(N)NCCC[C@@H]1NC(=O)[C@@H]2CCNC(=O)CC[C@H](NC(=O)[C@H](Cc3c[nH]c4ccccc34)NC(=O)[C@H](CCCNC(=N)N)NC(=O)[C@H](CCCNC(=N)N)NC(=O)[C@H]3CCCN3C(=O)CNC1=O)C(=O)N[C@@H](Cc1ccc(O)cc1)C(=O)N[C@@H](CCCNC(N)=O)C(=O)N[C@@H](CCCCN)C(=O)N1CCC[C@@H]1C(=O)N1CCC[C@H]1C(=O)N[C@@H](Cc1ccc(O)cc1)C(=O)N[C@@H](CCCNC(=N)N)C(=O)N[C@@H](CCCNC(N)=O)C(=O)N2) [Example 152]"
  CATEGORY_LABEL: "F"
- BINDER: "cyclo(YRTCRG[dP][Dab]RWCYQK[dP]P) (disulfide 4-11; SMILES C[C@@H](O)[C@@H]1NC(=O)[C@H](CCCNC(=N)N)NC(=O)[C@H](Cc2ccc(O)cc2)NC(=O)[C@@H]2CCCN2C(=O)[C@H]2CCCN2C(=O)[C@H](CCCCN)NC(=O)[C@H](CCC(N)=O)NC(=O)[C@H](Cc2ccc(O)cc2)NC(=O)[C@@H]2CSSC[C@H](NC1=O)C(=O)N[C@@H](CCCNC(=N)N)C(=O)NCC(=O)N1CCC[C@@H]1C(=O)N[C@@H](CCN)C(=O)N[C@@H](CCCNC(=N)N)C(=O)N[C@@H](Cc1c[nH]c3ccccc13)C(=O)N2) [Example 110]"
  CATEGORY_LABEL: "T"

Strictly below 4 nM in IC50 (nM) Ca2+ assay (method 2)? cyclo(YK[Cit]CRG[dP]RRWCY[Cit]K[dP]P) (disulfide 4-11; SMILES N=C(N)NCCC[C@@H]1NC(=O)[C@@H]2CSSC[C@H](NC(=O)[C@H](Cc3c[nH]c4ccccc34)NC(=O)[C@H](CCCNC(=N)N)NC(=O)[C@H](CCCNC(=N)N)NC(=O)[C@H]3CCCN3C(=O)CNC1=O)C(=O)N[C@@H](Cc1ccc(O)cc1)C(=O)N[C@@H](CCCNC(N)=O)C(=O)N[C@@H](CCCCN)C(=O)N1CCC[C@@H]1C(=O)N1CCC[C@H]1C(=O)N[C@@H](Cc1ccc(O)cc1)C(=O)N[C@@H](CCCCN)C(=O)N[C@@H](CCCNC(N)=O)C(=O)N2) [Example 106]
T
